Data provenance is patent US10278971B2.

Assay: First-in-human study: pharmacokinetics, safety and tolerability
Format: in vivo
Conditions: both sexes, human, plasma; single oral dose 100 mg; read-out: mean Tmax
Description: In a first-in-human, open-label, exploratory study, the pharmacokinetics, safety and tolerability of RX-3117 were evaluated. The study duration was 14-15 days (7-day screening period; 3-day treatment period; 4 (+1)-day safety follow-up period). Nine adult male and female subjects with histologically confirmed, solid tumors enrolled in and completed the study. The subjects received RX-3117 (n=3 subjects per dose) as a single oral dose (50 mg or 100 mg) or a single intravenous dose (20 mg).
endpoint name: Tmax (h)
// note: answer is a bare numeric in h

// Tmax lookup, molecule = Nc1ccn([C@@H]2C(F)=C(CO)[C@@H](O)[C@H]2O)c(=O)n1 , result: 2.49

###

Assay: Open-label dose-ranging study: pharmacokinetics, safety and tolerability of oral doses
Format: in vivo, human
Settings: human, in vivo, po, 200 mg, T1/2
endpoint name: half-life
Units required after the number.

Looking up Nc1ccn([C@@H]2C(F)=C(CO)[C@@H](O)[C@H]2O)c(=O)n1 , I found its half-life recorded as 13.3 h

###

Experiment: Open-label dose-ranging study: pharmacokinetics, safety and tolerability of oral doses
Format: in vivo, human
Details: human, in vivo, po, 500 mg, Tmax
Description: In an open-label, dose-ranging study, the pharmacokinetics (PK) of RX-3117 at various oral doses was evaluated. […] The efficacy, safety and tolerability of RX-3117 at various doses and frequencies were evaluated (see Example 4, above). […]
endpoint name: Tmax (h)
Entry rule: numbers only, all in h.

Looking up Nc1ccn([C@@H]2C(F)=C(CO)[C@@H](O)[C@H]2O)c(=O)n1 , I see its Tmax listed as 2

###

Assay: Open-label dose-ranging study: pharmacokinetics, safety and tolerability of oral doses
Type: in vivo, human
Details: human, in vivo, po, 150 mg, AUC0-24
endpoint name: AUC(0-t) (ng·h/mL)
Output spec: scalar in ng·h/mL, unitless text.

Field AUC(0-t) (entry Nc1ccn([C@@H]2C(F)=C(CO)[C@@H](O)[C@H]2O)c(=O)n1 [RX-3117] ) reads 3550

###

Assay: Open-label dose-ranging study: pharmacokinetics, safety and tolerability of oral doses
Format: in vivo, human
Conditions: human, in vivo, po, 700 mg, Cmax
Method: In an open-label, dose-ranging study, the pharmacokinetics (PK) of RX-3117 at various oral doses was evaluated. […] The efficacy, safety and tolerability of RX-3117 at various doses and frequencies were evaluated (see Example 4, above). […]
endpoint name: Cmax (ng/mL)
Field format: number, assumed ng/mL, no unit text.

For record Nc1ccn([C@@H]2C(F)=C(CO)[C@@H](O)[C@H]2O)c(=O)n1 [RX-3117] the listed Cmax is 989

###

Assay: Open-label dose-ranging study: pharmacokinetics, safety and tolerability of oral doses
Type: in vivo, human
Settings: human, in vivo, po, 60 mg, Tmax
endpoint name: Tmax (h)
Record the value in h, omitting the unit from your answer.

compound Nc1ccn([C@@H]2C(F)=C(CO)[C@@H](O)[C@H]2O)c(=O)n1 , Tmax observed: 4

###

Test: Open-label dose-ranging study: pharmacokinetics, safety and tolerability of oral doses
Format: in vivo, human
Details: human, in vivo, po, median Tmax
endpoint name: Tmax

// Nc1ccn([C@@H]2C(F)=C(CO)[C@@H](O)[C@H]2O)c(=O)n1 : Tmax value = 2 to 3 h
